Entry source: patent US20040248806A1

Non-standard residues stand in square brackets, D forms with d. Residues, ends and D or L forms follow the SMILES beside them. *: point of attachment. X1 = CN1CC[C@]23c4c5ccc(O)c4O[C@H]2[C@@H](O[C@@H]2O[C@H](C(=O)NCCS*)[C@@H](O)[C@H](O)[C@H]2O)C=C[C@H]3[C@H]1C5; Mpa = O=C(O)CCS
# pKi measurements, system: μ2 receptor (Bos taurus, UniProt P79350)
# Sequence (P79350 whole entry): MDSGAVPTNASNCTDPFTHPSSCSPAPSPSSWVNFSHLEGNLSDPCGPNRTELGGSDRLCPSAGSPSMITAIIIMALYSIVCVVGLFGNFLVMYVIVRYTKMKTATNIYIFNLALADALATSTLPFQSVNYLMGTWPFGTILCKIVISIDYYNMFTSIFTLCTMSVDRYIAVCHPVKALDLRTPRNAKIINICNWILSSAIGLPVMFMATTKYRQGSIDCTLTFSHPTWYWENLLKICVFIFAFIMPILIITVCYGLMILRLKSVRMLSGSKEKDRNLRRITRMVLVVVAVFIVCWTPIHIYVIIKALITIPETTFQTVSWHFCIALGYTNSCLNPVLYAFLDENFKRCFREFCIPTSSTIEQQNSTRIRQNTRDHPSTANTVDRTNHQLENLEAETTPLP
By convention, pKi is the negative base-10 log of a molar concentration.

Task: Form field: pKi recorded for CN1CC[C@]23c4c5ccc(O)c4O[C@H]2[C@@H](O[C@@H]2O[C@H](C(=O)O)[C@@H](O)[C@H](O)[C@H]2O)C=C[C@H]3[C@H]1C5 [Compound 1, morphine-6-glucuronide] with μ2 receptor (Bos taurus, UniProt P79350) (enter value)
Result: 8.24

Task: // map CC(C)C[C@H](NC(=O)[C@H](CCCNC(=N)N)NC(=O)[C@H](CCCNC(=N)N)NC(=O)CCSSCCNC(=O)[C@H]1O[C@@H](O[C@H]2C=C[C@H]3[C@H]4Cc5ccc(O)c6c5[C@@]3(CCN4C)[C@H]2O6)[C@H](O)[C@@H](O)[C@@H]1O)C(=O)N[C@@H](CO)C(=O)N[C@@H](Cc1ccc(O)cc1)C(=O)N[C@@H](CO)C(=O)N[C@@H](CCCNC(=N)N)C(=O)N[C@@H](CCCNC(=N)N)C(=O)N[C@@H](CCCNC(=N)N)C(=O)N[C@@H](Cc1ccccc1)C(=O)O [Compound 2] ([Mpa](X1)RRLSYSRRRF-OH; C-terminus assumed) to recorded pKi (system: μ2 receptor (Bos taurus, UniProt P79350))
Result: 9.22

====

# Target: μ1 receptor
# Experimental Protocol: Receptor affinity, [3H]DADLE binding in calf thalamus homogenate
# Condition Label: [3H]DADLE 0.7 nM with 10 nM DPDPE
Observable: pKi
Give only the number. pKi is defined as minus log10 of concentration in molar units.

Task: Using the record for CN1CC[C@]23c4c5ccc(O)c4O[C@H]2[C@@H](O[C@@H]2O[C@H](C(=O)O)[C@@H](O)[C@H](O)[C@H]2O)C=C[C@H]3[C@H]1C5 [Compound 1, morphine-6-glucuronide] , report its pKi.
Result: 8.57
